So I've got a bunch of molecules here, and I need their Aβ40/Aβ42 ratio values.
Target: γ-secretase (Homo sapiens, UniProt P49768)
Construct: endogenous in cells
Experiment: In vitro γ-secretase activity assay, Aβ40 production (ECL)
Format: biochemical
Details: ratio of IC50 for Aβ40 to IC50 for Aβ42
Hey, just send me the number, nothing else.

Provide measured Aβ40/Aβ42 ratio value, entry: O=c1oc2ccccc2c(O)c1C(/C=C/c1cc(F)c(F)c(F)c1)c1c(O)c2ccccc2oc1=O [(trans)-1]
1.3

State its Aβ40/Aβ42 ratio for this molecule: C/C=C/C=C/C(c1c(O)c2ccccc2oc1=O)c1c(O)c2ccccc2oc1=O [Compound 257]
1.4

Fill in reported Aβ40/Aβ42 ratio for this entry: O=c1oc2ccccc2c(O)c1C(c1cc(F)c(F)c(F)c1)c1c(O)c2ccccc2oc1=O [Compound 37]
3.0

Answer with the recorded Aβ40/Aβ42 ratio for the molecule listed here: O=c1oc2ccccc2c(O)c1C1c2cc(F)c(F)cc2Oc2c1c(=O)oc1ccccc21 (centres unmarked) [Compound 369]
2.9

Quickly give me recorded Aβ40/Aβ42 ratio for O=c1oc2ccccc2c(O)c1C(c1ccc(Br)cc1)c1c(O)c2ccccc2oc1=O [compound 730]
1.4

Please look at this molecule and report its Aβ40/Aβ42 ratio: O=c1oc2ccccc2c(O)c1C(c1cccc(C(F)(F)F)c1)c1c(O)c2ccccc2oc1=O [Compound 209]
2.5

Indicate its recorded Aβ40/Aβ42 ratio; the molecule in question is O=C(CC(c1cc(F)c(F)c(F)c1)c1c(O)c2ccccc2oc1=O)NCc1cc(F)cc(F)c1 (centres unmarked) [compound 512]
1.5

Kindly indicate its recorded Aβ40/Aβ42 ratio. Item: Cc1ccc2oc(=O)c(C(c3cc(F)c(F)c(F)c3)c3c(O)c4cc(C)ccc4oc3=O)c(O)c2c1 [Compound 197]
2.1

###

Target: γ-secretase (Homo sapiens, UniProt P49768)
Construct: endogenous in cells
Experiment: In vitro γ-secretase activity assay, Aβ40 production (ECL)
Type: biochemical
Details: in vitro inhibition of γ-secretase activity that generates Aβ40; 2.5 hr at 37° C., ECL detection
Method: FIG. 2. In vitro characterization of coumarin-dimer allosteric GSIs against various γ-secretase cleavage products. The potency of 7 unique coumarin-based γ-secretase inhibitors were evaluated for efficacy against γ-secretase-mediated production of Aβ40, Aβ42, Aβ38, and Notch. […] The IC50 values were calculated from the dose response curves using a non-linear regression analysis in Prism software. […] Electrochemiluminescence was quantified on an Analyzer (BioVeris). […]
// classify: if (IC50 < 5 µM) yes else no

Does this molecule meet the criterion IC50 < 5 µM? O=C(Cc1cc(F)cc(F)c1)NCCNC(=O)CC(c1cc(F)c(F)c(F)c1)c1c(O)c2ccccc2oc1=O (centres unmarked)
no

hey, is IC50 for "Oc1ccnc(O)c1C(c1cc(F)c(F)c(F)c1)c1c(O)ccnc1O" lower than 5 µM or not?
no

Dear colleague, could you confirm whether IC50 of "COc1ccc(C(c2c(O)c3ccccc3oc2=O)c2c(O)c3ccccc3oc2=O)cc1F" falls below 5 µM? Thanks.
no

Consider the molecule "CCc1ccc(C(c2c(O)c3ccccc3oc2=O)c2c(O)c3ccccc3oc2=O)cc1" . Is its IC50 strictly less than 5 µM?
yes

Hello, I'm reviewing records and need to know if IC50 of O=c1oc2ccccc2c(O)c1C1c2cc(F)c(F)cc2Oc2c1c(=O)oc1ccccc21 (centres unmarked) is below 5 µM. Could you check?
yes

IC50 under 5 µM? Item: "O=c1oc2ccccc2c(O)c1Cc1cc(F)c(F)c(F)c1"
no

Dear reviewer, please state whether "O=c1sc2ccccc2c(O)c1C(c1cc(F)c(F)c(F)c1)c1c(O)c2ccccc2sc1=O" has IC50 strictly beneath 5 µM.
yes

Lab note: IC50 threshold 5 µM. Does this molecule come in strictly under it? "O=c1oc2ccccc2c(O)c1C(c1cc(F)c(F)c(F)c1)c1c(O)c2ccccc2oc1=O"
yes

###

Molecular target: γ-secretase (Homo sapiens, UniProt P49768)
Construct: endogenous in cells
Assay: In vitro γ-secretase activity assay, Aβ40 production (ECL)
Format: biochemical
Details: in vitro inhibition of γ-secretase activity that generates Aβ40; 2.5 hr at 37° C., ECL detection
Metric name: log10 IC50 (log10 of the value in µM)
Please keep in mind that the values are log10 of IC50 expressed in µM.

For the compound "Cc1coc(=O)c(C(c2cc(F)c(F)c(F)c2)c2c(O)c(C)coc2=O)c1O" , give its reported log10 IC50.
0.62

Report log10 IC50, nothing else, for this compound: Nc1ccc2c(c1)Oc1c(c(=O)oc3ccccc13)C2c1c(O)c2ccccc2oc1=O (stereo not drawn)
1.29

Give log10 IC50 for the following compound: "O=c1oc2ccccc2c(O)c1C(Cc1ccc(F)cc1)c1c(O)c2ccccc2oc1=O"
0.60

State, in one line, measured log10 IC50 of "O=c1oc2ccc(F)cc2c(O)c1C(c1cc(F)c(F)c(F)c1)c1c(O)c2cc(F)ccc2oc1=O"
0.41

Entry "O=c1oc2ccccc2c(O)c1C(c1ccccc1F)c1c(O)c2ccccc2oc1=O" needs its log10 IC50 filled in; supply it.
0.29

Write down log10 IC50 measured for item "O=c1oc2ccccc2c(O)c1C(c1ccc(Cl)cc1)c1c(O)c2ccccc2oc1=O"
0.23

Fill in log10 IC50 for record "O=c1oc2ccccc2c(O)c1C(c1cccc(C(F)(F)F)c1)c1c(O)c2ccccc2oc1=O"
0.30

Quote log10 IC50 reported for "O=c1oc2ccccc2c(O)c1C(c1ccc(C(F)(F)F)cc1)c1c(O)c2ccccc2oc1=O" please.
0.85

Report log10 IC50 for "O=c1oc2ccccc2c(O)c1C(c1cc(F)cc(F)c1)c1c(O)c2ccccc2oc1=O"
-0.47

###

Target: γ-secretase (Homo sapiens, UniProt P49768)
Construct: endogenous in cells
Assay: In vitro γ-secretase activity assay, Aβ40 production (ECL)
Assay type: biochemical
Conditions: ratio of IC50 for Aβ40 to IC50 for Aβ42
Provide the recorded Aβ40/Aβ42 ratio for the entries that follow.
Just the number, please.

Tell me Aβ40/Aβ42 ratio reported for "O=c1oc2ccc(F)cc2c(O)c1C(c1cc(F)c(F)c(F)c1)c1c(O)c2cc(F)ccc2oc1=O"
2.9

Find the measured Aβ40/Aβ42 ratio of "O=c1oc2ccccc2c(O)c1C(c1cc(F)cc(F)c1)c1c(O)c2ccccc2oc1=O" and report it.
2.0

Fill in Aβ40/Aβ42 ratio for record O=c1oc2ccccc2c(O)c1C1c2c(F)c(F)c(F)c(F)c2Oc2c1c(=O)oc1ccccc21 (centres unmarked)
2.6

Indicate its recorded Aβ40/Aβ42 ratio; the compound in question is "O=C(Cc1cc(F)cc(F)c1)c1c(O)c2ccccc2oc1=O"
3.3

Supply reported Aβ40/Aβ42 ratio belonging to this compound: "CCc1ccc(C(c2c(O)c3ccccc3oc2=O)c2c(O)c3ccccc3oc2=O)cc1"
2.4

Return Aβ40/Aβ42 ratio for the following compound: "Cc1coc(=O)c(C(c2cc(F)c(F)c(F)c2)c2c(O)c(C)coc2=O)c1O"
2.5

Let me know recorded Aβ40/Aβ42 ratio for "O=c1[nH]c2ccccc2c(O)c1C(c1cc(F)c(F)c(F)c1)c1c(O)c2ccccc2[nH]c1=O" , thanks.
2.4

Could you please provide reported Aβ40/Aβ42 ratio for "O=c1oc2ccccc2c(O)c1C(Cc1ccc(F)cc1)c1c(O)c2ccccc2oc1=O" ? Thanks!
4.4

Name the recorded Aβ40/Aβ42 ratio of the item "O=c1oc2ccccc2c(O)c1C(c1ccc(Cl)cc1)c1c(O)c2ccccc2oc1=O" in your answer.
1.4

Provide one value: measured Aβ40/Aβ42 ratio of "COc1ccc(C(c2c(O)c3ccccc3oc2=O)c2c(O)c3ccccc3oc2=O)cc1F"
2.2

Let me know recorded Aβ40/Aβ42 ratio for O=C(Cc1cc(F)cc(F)c1)NCCNC(=O)CC(c1cc(F)c(F)c(F)c1)c1c(O)c2ccccc2oc1=O (centres unmarked) , thanks.
2.0

###

Target: γ-secretase (Homo sapiens)
Construct: endogenous in cells
Assay: In vitro γ-secretase activity assay, Aβ40 production (ECL)
Format: biochemical
Conditions: ratio of IC50 for Aβ40 to IC50 for Aβ42
For each entry below, report its Aβ40/Aβ42 ratio value.
In your answer, state the number alone without any accompanying words.

Tell us which Aβ40/Aβ42 ratio value is on record for "CC(=O)Nc1ccc(C(c2c(O)c3ccccc3oc2=O)c2c(O)c3ccccc3oc2=O)cc1"
4.0

Report Aβ40/Aβ42 ratio for "O=c1oc2ccccc2c(O)c1C(c1ccc(C(F)(F)F)cc1)c1c(O)c2ccccc2oc1=O"
4.4

Look up and report measured Aβ40/Aβ42 ratio for this entry: COc1ccc(/C=C/C(c2c(O)c3ccccc3oc2=O)c2c(O)c3ccccc3oc2=O)cc1 [(trans)-258]
3.8

Please report the measured Aβ40/Aβ42 ratio for "O=c1oc2ccccc2c(O)c1C(c1ccccc1F)c1c(O)c2ccccc2oc1=O"
0.3

Identify measured Aβ40/Aβ42 ratio associated with Nc1ccc2c(c1)Oc1c(c(=O)oc3ccccc13)C2c1c(O)c2ccccc2oc1=O (centres unmarked)
2.0

Please supply the value of reported Aβ40/Aβ42 ratio for the item "O=c1oc2ccccc2c(O)c1C(c1c(O)c2ccccc2oc1=O)C1CCCCC1"
3.5

State, in one line, measured Aβ40/Aβ42 ratio of "O=c1oc2ccccc2c(O)c1C(c1ccc(I)cc1)c1c(O)c2ccccc2oc1=O"
4.1

Tell me Aβ40/Aβ42 ratio reported for "O=c1sc2ccccc2c(O)c1C(c1cc(F)c(F)c(F)c1)c1c(O)c2ccccc2sc1=O"
2.6
